Tested target: Dual specificity protein kinase CLK3 (Homo sapiens, UniProt P49761)
Sequence (P49761 whole entry): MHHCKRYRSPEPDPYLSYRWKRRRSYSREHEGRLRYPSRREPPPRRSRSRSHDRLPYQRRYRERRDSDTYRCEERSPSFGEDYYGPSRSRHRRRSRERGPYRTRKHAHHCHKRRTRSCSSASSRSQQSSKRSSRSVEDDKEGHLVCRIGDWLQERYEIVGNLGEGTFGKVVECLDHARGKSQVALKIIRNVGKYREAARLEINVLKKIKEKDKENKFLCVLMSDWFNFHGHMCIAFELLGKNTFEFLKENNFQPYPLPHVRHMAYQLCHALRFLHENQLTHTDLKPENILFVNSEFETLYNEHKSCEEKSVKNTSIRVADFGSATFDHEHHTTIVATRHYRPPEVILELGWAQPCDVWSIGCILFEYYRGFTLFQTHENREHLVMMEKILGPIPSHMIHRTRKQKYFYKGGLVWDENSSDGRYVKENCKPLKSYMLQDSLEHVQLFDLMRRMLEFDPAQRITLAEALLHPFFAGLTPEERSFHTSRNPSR
pKd: −log10 of the molar value.
Outcome measure: pKd

> print(dat)
                           molecular.string  outcome.measure  observed.measurement
1  CCOc1cc2ncc(C#N)c(Nc3ccc(F)c(Cl)c3)c2cc1NC(=O)/C=C/CN(C)C              pKd                  5.68

###

# Kd measurements, system: Serine/threonine-protein kinase 38-like (Homo sapiens)
# Sequence (Q9Y2H1 whole entry): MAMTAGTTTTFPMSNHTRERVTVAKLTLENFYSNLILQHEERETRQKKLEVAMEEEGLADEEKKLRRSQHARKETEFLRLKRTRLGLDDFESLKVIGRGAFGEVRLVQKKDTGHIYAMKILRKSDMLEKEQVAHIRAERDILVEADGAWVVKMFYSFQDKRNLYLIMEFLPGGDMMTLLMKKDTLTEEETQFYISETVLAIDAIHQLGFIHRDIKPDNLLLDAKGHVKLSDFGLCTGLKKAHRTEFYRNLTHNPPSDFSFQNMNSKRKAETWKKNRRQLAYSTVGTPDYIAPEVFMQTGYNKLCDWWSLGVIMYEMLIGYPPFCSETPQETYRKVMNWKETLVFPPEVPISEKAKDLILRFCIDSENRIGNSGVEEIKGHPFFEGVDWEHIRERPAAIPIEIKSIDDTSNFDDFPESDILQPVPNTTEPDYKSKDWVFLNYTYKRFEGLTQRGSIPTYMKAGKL
Outcome measure: Kd

> print(dat)
                                   compound                             tested.target  outcome.measure  observed.measurement
1  C[S+]([O-])c1ccc(-c2nc(-c3ccc(F)cc3)c(-c3ccncc3)[nH]2)cc1 (stereo not drawn) [SB-203580]  Serine/threonine-protein kinase 38-like (Homo sapiens)               Kd            Not Active
2  O=c1ncn2nc(Sc3ccc(F)cc3F)ccc2c1-c1c(Cl)cccc1Cl [NEFLAMAPIMOD]  Serine/threonine-protein kinase 38-like (Homo sapiens)               Kd            Not Active
3  C#Cc1cccc(Nc2ncnc3cc(OCCOC)c(OCCOC)cc23)c1 [ERLOTINIB]  Serine/threonine-protein kinase 38-like (Homo sapiens)               Kd            Not Active

###

Tested target: Membrane-associated tyrosine- and threonine-specific cdc2-inhibitory kinase (Homo sapiens, UniProt Q99640)
Sequence (Q99640 whole entry): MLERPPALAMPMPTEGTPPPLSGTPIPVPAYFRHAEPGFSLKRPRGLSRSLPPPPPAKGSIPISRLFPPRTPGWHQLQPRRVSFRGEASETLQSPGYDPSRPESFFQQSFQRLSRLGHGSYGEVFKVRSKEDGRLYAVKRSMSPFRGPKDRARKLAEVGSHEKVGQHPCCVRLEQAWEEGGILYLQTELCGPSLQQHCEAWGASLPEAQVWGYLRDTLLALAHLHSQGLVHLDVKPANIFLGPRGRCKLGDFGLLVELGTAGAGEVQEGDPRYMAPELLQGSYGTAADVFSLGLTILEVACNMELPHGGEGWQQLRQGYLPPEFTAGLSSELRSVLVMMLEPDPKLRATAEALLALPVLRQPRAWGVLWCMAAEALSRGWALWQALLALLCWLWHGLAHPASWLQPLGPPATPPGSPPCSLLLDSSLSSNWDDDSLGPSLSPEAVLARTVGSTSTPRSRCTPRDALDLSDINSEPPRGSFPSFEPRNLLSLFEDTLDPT
Outcome measure: Kd (nM)

> print(dat)
                           molecular.string  unit.label  observed.measurement
1  CCOc1cc2ncc(C#N)c(Nc3ccc(F)c(Cl)c3)c2cc1NC(=O)/C=C/CN(C)C          nM                   930

###

# pKd measurements, system: STE20-like serine/threonine-protein kinase (Homo sapiens)
# Sequence (Q9H2G2 whole entry): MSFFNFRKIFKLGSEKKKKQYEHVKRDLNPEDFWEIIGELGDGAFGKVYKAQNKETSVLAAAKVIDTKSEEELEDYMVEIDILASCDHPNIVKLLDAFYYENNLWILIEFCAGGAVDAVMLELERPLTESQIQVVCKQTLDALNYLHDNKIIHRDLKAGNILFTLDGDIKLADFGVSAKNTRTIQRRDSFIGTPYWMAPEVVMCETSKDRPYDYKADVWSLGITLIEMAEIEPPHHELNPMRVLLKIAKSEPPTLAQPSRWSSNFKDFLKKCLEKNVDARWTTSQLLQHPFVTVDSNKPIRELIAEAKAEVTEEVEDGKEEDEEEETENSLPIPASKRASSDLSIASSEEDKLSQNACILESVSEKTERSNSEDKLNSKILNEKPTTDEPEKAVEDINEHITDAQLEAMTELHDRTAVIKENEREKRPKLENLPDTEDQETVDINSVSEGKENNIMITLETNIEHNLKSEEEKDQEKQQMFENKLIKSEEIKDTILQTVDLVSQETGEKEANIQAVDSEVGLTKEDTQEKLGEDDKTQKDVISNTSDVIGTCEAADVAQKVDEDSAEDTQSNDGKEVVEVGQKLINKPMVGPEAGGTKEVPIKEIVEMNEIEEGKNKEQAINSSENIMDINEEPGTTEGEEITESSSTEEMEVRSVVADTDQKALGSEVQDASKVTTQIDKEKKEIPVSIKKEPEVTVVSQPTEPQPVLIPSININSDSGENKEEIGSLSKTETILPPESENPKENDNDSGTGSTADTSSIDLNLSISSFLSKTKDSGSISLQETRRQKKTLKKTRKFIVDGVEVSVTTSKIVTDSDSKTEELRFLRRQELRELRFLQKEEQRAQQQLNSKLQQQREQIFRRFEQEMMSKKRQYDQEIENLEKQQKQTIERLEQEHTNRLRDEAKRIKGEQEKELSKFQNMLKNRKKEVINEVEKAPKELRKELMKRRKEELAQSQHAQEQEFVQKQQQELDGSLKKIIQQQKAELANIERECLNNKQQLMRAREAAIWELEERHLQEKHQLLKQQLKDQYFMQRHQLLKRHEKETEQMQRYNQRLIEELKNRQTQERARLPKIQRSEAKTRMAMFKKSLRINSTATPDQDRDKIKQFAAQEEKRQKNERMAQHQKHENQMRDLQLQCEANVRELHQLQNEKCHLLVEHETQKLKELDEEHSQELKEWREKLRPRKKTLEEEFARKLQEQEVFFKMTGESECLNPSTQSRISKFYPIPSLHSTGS
pKd: −log10 of the molar value.
Outcome measure: pKd

> print(dat)
                           molecular.string  outcome.measure  observed.measurement
1              Oc1c2ccccc2c2c3c(cccc13)N=N2              pKd                  5.64
2  CCOc1cc2ncc(C#N)c(Nc3ccc(F)c(Cl)c3)c2cc1NC(=O)/C=C/CN(C)C              pKd                  6.60

###

# pKd measurements, system: Cyclin-G-associated kinase (Homo sapiens, UniProt O14976)
# Sequence (O14976 whole entry): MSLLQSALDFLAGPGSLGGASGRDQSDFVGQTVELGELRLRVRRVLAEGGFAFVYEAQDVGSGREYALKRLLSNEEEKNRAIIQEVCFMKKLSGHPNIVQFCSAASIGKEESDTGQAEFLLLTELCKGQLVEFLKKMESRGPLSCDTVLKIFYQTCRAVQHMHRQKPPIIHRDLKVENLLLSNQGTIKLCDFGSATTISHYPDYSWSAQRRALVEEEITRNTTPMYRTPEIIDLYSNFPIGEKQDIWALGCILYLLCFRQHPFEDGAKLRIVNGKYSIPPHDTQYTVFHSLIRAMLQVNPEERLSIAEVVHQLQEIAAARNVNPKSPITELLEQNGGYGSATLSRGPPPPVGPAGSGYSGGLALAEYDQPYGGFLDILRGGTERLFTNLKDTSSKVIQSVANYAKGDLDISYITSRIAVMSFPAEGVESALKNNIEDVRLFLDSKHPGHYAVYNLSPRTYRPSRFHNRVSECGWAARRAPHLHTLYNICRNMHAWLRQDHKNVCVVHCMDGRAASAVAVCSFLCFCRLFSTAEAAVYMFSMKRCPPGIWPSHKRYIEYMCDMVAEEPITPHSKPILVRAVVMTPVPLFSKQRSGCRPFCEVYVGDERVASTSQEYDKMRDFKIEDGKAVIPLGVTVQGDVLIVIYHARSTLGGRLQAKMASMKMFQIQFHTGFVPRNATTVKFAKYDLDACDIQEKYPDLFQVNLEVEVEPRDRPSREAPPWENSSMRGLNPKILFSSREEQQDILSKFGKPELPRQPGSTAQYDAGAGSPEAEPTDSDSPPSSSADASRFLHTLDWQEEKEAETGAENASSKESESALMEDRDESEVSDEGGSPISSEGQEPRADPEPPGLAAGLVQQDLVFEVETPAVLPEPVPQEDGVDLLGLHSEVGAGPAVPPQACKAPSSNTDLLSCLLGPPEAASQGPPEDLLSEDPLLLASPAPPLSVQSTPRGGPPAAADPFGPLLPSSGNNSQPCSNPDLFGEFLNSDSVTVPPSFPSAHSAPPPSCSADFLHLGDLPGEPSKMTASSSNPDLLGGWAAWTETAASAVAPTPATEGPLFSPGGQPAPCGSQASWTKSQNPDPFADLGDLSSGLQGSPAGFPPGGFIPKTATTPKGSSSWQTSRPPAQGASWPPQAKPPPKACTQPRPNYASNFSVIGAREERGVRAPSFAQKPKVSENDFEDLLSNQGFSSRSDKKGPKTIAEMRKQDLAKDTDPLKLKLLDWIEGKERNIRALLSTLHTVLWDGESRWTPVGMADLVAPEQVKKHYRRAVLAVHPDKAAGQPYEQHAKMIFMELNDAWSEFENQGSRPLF
pKd: −log10 of the molar value.
Outcome measure: pKd

> print(dat)
                                   compound  observed.measurement
1  CCOc1cc2ncc(C#N)c(Nc3ccc(F)c(Cl)c3)c2cc1NC(=O)/C=C/CN(C)C [PELITINIB]                  8.82
2  Oc1c2ccccc2c2c3c(cccc13)N=N2 [SP-600125]                  7.42

###

# Kd measurements, system: 5'-AMP-activated protein kinase catalytic subunit alpha-1 (Homo sapiens, UniProt Q13131)
# Sequence (Q13131 whole entry): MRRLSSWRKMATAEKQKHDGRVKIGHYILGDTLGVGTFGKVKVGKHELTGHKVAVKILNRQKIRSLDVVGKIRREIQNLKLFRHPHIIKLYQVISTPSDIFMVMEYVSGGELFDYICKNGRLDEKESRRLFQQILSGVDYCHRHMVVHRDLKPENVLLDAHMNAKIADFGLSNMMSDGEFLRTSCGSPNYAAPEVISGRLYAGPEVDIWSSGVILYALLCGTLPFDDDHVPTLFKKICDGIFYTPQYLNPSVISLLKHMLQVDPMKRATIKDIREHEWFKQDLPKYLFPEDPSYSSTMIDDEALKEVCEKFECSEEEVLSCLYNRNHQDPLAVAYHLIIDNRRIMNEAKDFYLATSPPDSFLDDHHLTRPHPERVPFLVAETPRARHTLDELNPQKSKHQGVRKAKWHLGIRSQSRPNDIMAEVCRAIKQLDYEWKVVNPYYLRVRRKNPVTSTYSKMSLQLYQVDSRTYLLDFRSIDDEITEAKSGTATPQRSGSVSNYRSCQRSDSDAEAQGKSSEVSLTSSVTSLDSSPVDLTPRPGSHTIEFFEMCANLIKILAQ
Outcome measure: Kd

> print(dat)
                                   molecule                             tested.target  observed.measurement
1  COc1cc2c(N3CCN(C(=O)Nc4ccc(OC(C)C)cc4)CC3)ncnc2cc1OCCCN1CCCCC1  5'-AMP-activated protein kinase catalytic subunit alpha-1 (Homo sapiens, UniProt Q13131)            Not Active
2  C[S+]([O-])c1ccc(-c2nc(-c3ccc(F)cc3)c(-c3ccncc3)[nH]2)cc1 (stereo not given)  5'-AMP-activated protein kinase catalytic subunit alpha-1 (Homo sapiens, UniProt Q13131)            Not Active
3  Cc1ccc(NC(=O)c2ccc(CN3CCN(C)CC3)cc2)cc1Nc1nccc(-c2cccnc2)n1  5'-AMP-activated protein kinase catalytic subunit alpha-1 (Homo sapiens, UniProt Q13131)            Not Active
4              Oc1c2ccccc2c2c3c(cccc13)N=N2  5'-AMP-activated protein kinase catalytic subunit alpha-1 (Homo sapiens, UniProt Q13131)            Not Active
5  O=c1ncn2nc(Sc3ccc(F)cc3F)ccc2c1-c1c(Cl)cccc1Cl  5'-AMP-activated protein kinase catalytic subunit alpha-1 (Homo sapiens, UniProt Q13131)            Not Active

###

Tested target: Ephrin type-A receptor 3 (Homo sapiens, UniProt P29320)
Sequence (P29320 whole entry): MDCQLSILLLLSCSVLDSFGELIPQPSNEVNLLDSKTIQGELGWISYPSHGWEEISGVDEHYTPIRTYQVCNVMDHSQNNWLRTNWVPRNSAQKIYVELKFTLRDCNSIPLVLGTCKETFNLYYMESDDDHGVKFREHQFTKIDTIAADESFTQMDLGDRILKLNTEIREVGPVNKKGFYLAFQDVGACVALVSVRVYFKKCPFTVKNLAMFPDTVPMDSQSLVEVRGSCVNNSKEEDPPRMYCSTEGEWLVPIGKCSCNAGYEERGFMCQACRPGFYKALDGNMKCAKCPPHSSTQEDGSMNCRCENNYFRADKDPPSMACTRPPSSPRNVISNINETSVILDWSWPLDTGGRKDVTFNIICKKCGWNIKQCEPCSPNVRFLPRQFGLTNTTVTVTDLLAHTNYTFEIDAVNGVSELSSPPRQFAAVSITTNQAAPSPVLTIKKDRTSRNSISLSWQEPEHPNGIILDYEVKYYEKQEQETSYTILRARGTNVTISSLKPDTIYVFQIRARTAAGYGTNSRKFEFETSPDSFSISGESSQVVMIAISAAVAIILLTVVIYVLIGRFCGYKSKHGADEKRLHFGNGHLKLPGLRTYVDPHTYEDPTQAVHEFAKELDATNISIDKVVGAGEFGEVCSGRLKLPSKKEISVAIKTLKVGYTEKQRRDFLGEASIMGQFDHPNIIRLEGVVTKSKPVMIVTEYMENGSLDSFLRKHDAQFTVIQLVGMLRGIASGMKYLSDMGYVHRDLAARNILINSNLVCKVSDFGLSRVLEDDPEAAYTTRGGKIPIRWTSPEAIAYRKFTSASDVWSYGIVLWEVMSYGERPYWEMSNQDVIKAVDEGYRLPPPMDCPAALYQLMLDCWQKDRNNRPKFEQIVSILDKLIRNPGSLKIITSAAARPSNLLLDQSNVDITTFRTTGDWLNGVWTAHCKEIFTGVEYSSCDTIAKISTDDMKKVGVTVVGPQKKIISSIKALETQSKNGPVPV
Outcome measure: Kd

> print(dat)
                                   compound  outcome.measure  observed.measurement
1  Cc1ccc(NC(=O)c2ccc(CN3CCN(C)CC3)cc2)cc1Nc1nccc(-c2cccnc2)n1 [IMATINIB]               Kd            Not Active
2  O=c1ncn2nc(Sc3ccc(F)cc3F)ccc2c1-c1c(Cl)cccc1Cl [NEFLAMAPIMOD]               Kd            Not Active
3  Oc1ccc(-c2nc(-c3ccc(F)cc3)c(-c3ccncc3)[nH]2)cc1 [SB-202190]               Kd            Not Active
4  C[S+]([O-])c1ccc(-c2nc(-c3ccc(F)cc3)c(-c3ccncc3)[nH]2)cc1 (configuration not stated) [SB-203580]               Kd            Not Active
5  COc1cc2c(N3CCN(C(=O)Nc4ccc(OC(C)C)cc4)CC3)ncnc2cc1OCCCN1CCCCC1 [TANDUTINIB]               Kd            Not Active
6  C#Cc1cccc(Nc2ncnc3cc(OCCOC)c(OCCOC)cc23)c1 [ERLOTINIB]               Kd            Not Active
7  CC[C@H](CO)Nc1nc(NCc2ccccc2)c2ncn(C(C)C)c2n1 [SELICICLIB]               Kd            Not Active

###

Tested target: Tyrosine-protein kinase Lyn (Homo sapiens)
Outcome measure: Kd (nM)

> print(dat)
                           molecular.string  unit.label  observed.measurement
1  CCOc1cc2ncc(C#N)c(Nc3ccc(F)c(Cl)c3)c2cc1NC(=O)/C=C/CN(C)C          nM                   960

###

Tested target: Ephrin type-A receptor 5 (Homo sapiens, UniProt P54756)
pKd: −log10 of the molar value.
Outcome measure: pKd

> print(dat)
                                   compound  observed.measurement
1  CCOc1cc2ncc(C#N)c(Nc3ccc(F)c(Cl)c3)c2cc1NC(=O)/C=C/CN(C)C [PELITINIB]                  6.15

###

Tested target: MAP kinase-interacting serine/threonine-protein kinase 2 (Homo sapiens)
Sequence (Q9HBH9 whole entry): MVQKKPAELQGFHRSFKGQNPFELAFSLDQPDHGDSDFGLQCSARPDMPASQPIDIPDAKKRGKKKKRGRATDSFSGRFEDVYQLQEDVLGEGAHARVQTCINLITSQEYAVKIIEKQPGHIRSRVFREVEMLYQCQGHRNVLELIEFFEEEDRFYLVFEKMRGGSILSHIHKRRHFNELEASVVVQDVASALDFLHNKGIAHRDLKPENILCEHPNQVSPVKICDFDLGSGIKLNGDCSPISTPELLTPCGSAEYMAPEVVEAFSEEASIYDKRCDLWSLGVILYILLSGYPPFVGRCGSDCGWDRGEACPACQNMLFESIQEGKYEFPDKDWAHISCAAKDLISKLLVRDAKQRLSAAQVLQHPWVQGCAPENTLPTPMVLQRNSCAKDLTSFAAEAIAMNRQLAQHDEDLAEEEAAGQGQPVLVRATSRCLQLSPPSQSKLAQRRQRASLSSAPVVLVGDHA
Outcome measure: Kd

> print(dat)
               molecular.string  observed.measurement
1  Oc1c2ccccc2c2c3c(cccc13)N=N2               1000 nM
